System: P388 leukemia ip, CD2F1 mice, survival T/C
Test: NCI In Vivo Anticancer Drug Screen. Data for tumor model P388 Leukemia (intraperitoneal) in CD2F1 (CDF1) mice
Conditions: endpoint: median survival time; dose: 100.0 mg/kg/injection; schedule: Q01DX009 (ip); vehicle: saline; higher = longer survival
Inconclusive results and toxic doses are left out.
Property name: T/C

{"Molecule": "C(/CSC/C=N/Nc1ccccc1)=N\\Nc1ccccc1", "Property name": "T/C", "Experimental value": "103 % of control"}
{"Molecule": "CC1=NN(c2cccc(S(=O)(=O)O)c2)C(=O)C1", "Property name": "T/C", "Experimental value": "95 % of control"}
{"Molecule": "O=C1CC(=O)OCCOCCOCCO1", "Property name": "T/C", "Experimental value": "117 % of control"}
{"Molecule": "OCC1OC2OC3C(CO)OC(OC4C(CO)OC(OC5C(CO)OC(OC6C(CO)OC(OC7C(CO)OC(OC8C(CO)OC(OC1C(O)C2O)C(O)C8O)C(O)C7O)C(O)C6O)C(O)C5O)C(O)C4O)C(O)C3O (configuration not stated)", "Property name": "T/C", "Experimental value": "94 % of control"}
{"Molecule": "CNC(=S)NNC1=NC(=S)NC1(C)C", "Property name": "T/C", "Experimental value": "103 % of control"}
{"Molecule": "Cc1ccc(O)c(C2CC(=O)NC(NC#N)=N2)c1 (configuration not stated)", "Property name": "T/C", "Experimental value": "101 % of control"}
{"Molecule": "CCNC(=O)Oc1ccc[nH]c1=O", "Property name": "T/C", "Experimental value": "122 % of control"}
{"Molecule": "OC1CCOC1 (configuration not stated)", "Property name": "T/C", "Experimental value": "101 % of control"}
{"Molecule": "C=C1SC(=Nc2cccc(OC)c2)N(c2nc(Cl)nc(Cl)n2)C1(C)C", "Property name": "T/C", "Experimental value": "102 % of control"}
{"Molecule": "CN1OC2(CCCCC2)n2c(=O)c3ccccc3c(=O)n2C1c1ccccc1 (configuration not stated)", "Property name": "T/C", "Experimental value": "100 % of control"}
{"Molecule": "OC(CI)C(O)C(O)C(O)CI (configuration not stated)", "Property name": "T/C", "Experimental value": "98 % of control"}
{"Molecule": "C[N+](C)(C)N", "Property name": "T/C", "Experimental value": "100 % of control"}
